Could you please report measured LD50 at 336 h for the items listed next?
# ASSAY: Acute toxicity, rat
# ASSAY CONDITIONS: in vivo, ip, 14 days from administration, C.L. 95%, read-out: DL50
Answers are plain numbers, in mg/kg.

- MOLECULE: "OC[C@@H](O)CN1CCN(c2ccccc2)CC1 [(-), (-)-dropropizine]"
  LD50 at 336 h (mg/kg): 401
- MOLECULE: "OC[C@H](O)CN1CCN(c2ccccc2)CC1 [(+)]"
  LD50 at 336 h (mg/kg): 363

Please examine the following record next.
# LD50 at 336 h lookup, item OCC(O)CN1CCN(c2ccccc2)CC1 (racemic) [(±), reference compound]
393
